Molecular target: KDM5A_c2 (Homo sapiens, UniProt P29375)
Sequence (P29375 with tags, fused parts or gaps): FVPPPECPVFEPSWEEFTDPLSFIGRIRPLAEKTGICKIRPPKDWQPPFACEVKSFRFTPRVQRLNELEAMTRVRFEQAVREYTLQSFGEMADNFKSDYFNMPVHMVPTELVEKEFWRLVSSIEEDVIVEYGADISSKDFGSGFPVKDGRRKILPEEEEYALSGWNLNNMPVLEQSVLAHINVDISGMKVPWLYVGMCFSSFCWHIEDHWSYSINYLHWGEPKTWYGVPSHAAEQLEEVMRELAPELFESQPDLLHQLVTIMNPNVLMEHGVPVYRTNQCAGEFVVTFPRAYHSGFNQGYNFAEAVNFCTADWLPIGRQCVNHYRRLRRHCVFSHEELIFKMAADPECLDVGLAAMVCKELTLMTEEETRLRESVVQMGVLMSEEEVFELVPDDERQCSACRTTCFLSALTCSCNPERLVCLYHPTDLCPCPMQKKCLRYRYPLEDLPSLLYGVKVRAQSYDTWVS
Readout name: Ki (µM)
Just the number please, in µM, no unit attached.

Supply Ki value. Item: CCCCc1oc2ccccc2c1C(=O)c1ccc(OCCC[N+](C)(C)C)cc1.[I-] [Compound 2a] 74

Every entry's value here was drawn from paper PMC6380468.
